# test target: Phosphodiesterase 3 (Homo sapiens, UniProt Q14432+Q13370)
# procedure details: Inhibition of PDE3 in homogenates of human blood platelets
Please use 1 for Log IC50 under -6 and -1 for everything else, ties included.

Say whether its Log IC50 is strictly beneath -6. Entry: COc1ccc(C2=NNC(=O)CC2)cc1OC
-1

Then COc1ccc(C2=NNC(=O)C(C)C2C)cc1OC (stereo in doubt; 3e) ?
-1

Then COc1ccc(C2=NN(Cc3ccccc3)C(=O)CC2)cc1OC ?
-1

Then COc1ccc(C2=NNC(=O)CC2C)cc1OC (stereo not given) ?
1

Then COc1cc(-c2ccc(=O)[nH]n2)ccc1OC(F)F [ZARDAVERINE] ?
1
